# Na values compiled below
species on record: Rattus norvegicus; test: Open TG-GATES - Regimen: Single; format: toxicity, organism-based, Sprague-Dawley; design: regimen Single, gender Male, age 6 weeks; settings: in vivo, po, 100 mg/kg, 24 h, tissue Plasma, route gavage, dose level Low

- COMPOUND: "CCC1(c2ccccc2)C(=O)NC(=O)NC1=O [PHENOBARBITAL]"
  Na: "142 meq/L"
- COMPOUND: "CN(C)C(=N)N=C(N)N [METFORMIN]"
  Na: "142.6 meq/L"
- COMPOUND: "CN(C)CCC=C1c2ccccc2COc2ccccc21 [DOXEPIN]"
  Na: "142 meq/L"
- COMPOUND: "O=NN1CCOCC1 [N-NITROSOMORPHOLINE]"
  Na: "140.8 meq/L"

----------
organism: Rattus norvegicus; test: Open TG-GATES - Regimen: Daily Repeat; type: toxicity, organism-based, Sprague-Dawley; parameters: regimen Daily Repeat, gender Male, age 6 weeks; details: in vivo, po, 0 mg/kg, 72 h, tissue Blood, route gavage, dose level Control, time 3 day
Returns one of rule met or rule not met; rule met when Ht is >= 40%.

- MOLECULE: "CCc1oc2ccccc2c1C(=O)c1cc(Br)c(O)c(Br)c1 [BENZBROMARONE]"
  QUALITATIVE_LABEL: "rule met"
- MOLECULE: "CN(C)C(=N)N=C(N)N [METFORMIN]"
  QUALITATIVE_LABEL: "rule not met"
- MOLECULE: "CC1=C(CC(=O)O)c2cc(F)ccc2/C1=C\\c1ccc([S+](C)[O-])cc1 (stereo unspecified)"
  QUALITATIVE_LABEL: "rule met"
- MOLECULE: "CN(C)CCC=C1c2ccccc2COc2ccccc21 [DOXEPIN]"
  QUALITATIVE_LABEL: "rule not met"

----------
species on record: Rattus norvegicus; test: Open TG-GATES - Regimen: Daily Repeat; assay type: toxicity, organism-based, Sprague-Dawley; set-up: regimen Daily Repeat, gender Male, age 6 weeks; details: in vivo, po, 0 mg/kg, […], tissue Plasma, route gavage, dose level Control, time 14 day
# DBIL values compiled below

- COMPOUND: "CN(C)CCC=C1c2ccccc2COc2ccccc21 [DOXEPIN]"
  DBIL: "0.014 mg/dL"
- COMPOUND: "CN(C)C(=N)N=C(N)N"
  DBIL: "0.014 mg/dL"
- COMPOUND: "CC(C)N(CCC(C(N)=O)(c1ccccc1)c1ccccn1)C(C)C (stereo unspecified) [DISOPYRAMIDE]"
  DBIL: "0 mg/dL"
- COMPOUND: "CCC1(c2ccccc2)C(=O)NC(=O)NC1=O"
  DBIL: "0.002 mg/dL"
- COMPOUND: "CC[C@H]1[C@@H]2C[C@H]3[C@@H]4N(C)c5ccccc5[C@]45C[C@@H]([C@@H]2[C@H]5O)N3[C@@H]1O"
  DBIL: "0.008 mg/dL"
- COMPOUND: "CC1=C(CC(=O)O)c2cc(F)ccc2/C1=C\\c1ccc([S+](C)[O-])cc1 (stereo unspecified)"
  DBIL: "0.012 mg/dL"
- COMPOUND: "CCc1oc2ccccc2c1C(=O)c1cc(Br)c(O)c(Br)c1"
  DBIL: "0.008 mg/dL"
- COMPOUND: "ClC(Cl)(Cl)Cl [CARBON TETRACHLORIDE]"
  DBIL: "0.062 mg/dL"
- COMPOUND: "OCCOCCN1CCN(C(c2ccccc2)c2ccc(Cl)cc2)CC1 (stereo unspecified) [HYDROXYZINE]"
  DBIL: "0.02 mg/dL"
- COMPOUND: "CCCCc1oc2ccccc2c1C(=O)c1cc(I)c(OCCN(CC)CC)c(I)c1"
  DBIL: "0.09 mg/dL"
- COMPOUND: "O=NN(CCCl)C(=O)NC1CCCCC1"
  DBIL: "0.014 mg/dL"

----------
organism: Rattus norvegicus; test: Open TG-GATES - Regimen: Daily Repeat; assay type: toxicity, organism-based, Sprague-Dawley; parameters: regimen Daily Repeat, gender Male, age 6 weeks; details: in vivo, po, 0 mg/kg, 72 h, tissue Plasma, route gavage, dose level Control, time 3 day
# BUN values compiled below

- COMPOUND: "CN(C)CCC=C1c2ccccc2COc2ccccc21 [DOXEPIN]"
  DISPLAY_UNIT: "mg/dL"
  BUN: 15.6
- COMPOUND: "OCCOCCN1CCN(C(c2ccccc2)c2ccc(Cl)cc2)CC1 (stereo unspecified) [HYDROXYZINE]"
  DISPLAY_UNIT: "mg/dL"
  BUN: 16.2
- COMPOUND: "O=NN(CCCl)C(=O)NC1CCCCC1"
  DISPLAY_UNIT: "mg/dL"
  BUN: 18
- COMPOUND: "CCC1(c2ccccc2)C(=O)NC(=O)NC1=O"
  DISPLAY_UNIT: "mg/dL"
  BUN: 16
- COMPOUND: "CC[C@H]1[C@@H]2C[C@H]3[C@@H]4N(C)c5ccccc5[C@]45C[C@@H]([C@@H]2[C@H]5O)N3[C@@H]1O"
  DISPLAY_UNIT: "mg/dL"
  BUN: 19.4
- COMPOUND: "CC1=C(CC(=O)O)c2cc(F)ccc2/C1=C\\c1ccc([S+](C)[O-])cc1 (stereo unspecified)"
  DISPLAY_UNIT: "mg/dL"
  BUN: 15
- COMPOUND: "CN(C)C(=N)N=C(N)N"
  DISPLAY_UNIT: "mg/dL"
  BUN: 13
- COMPOUND: "ClC(Cl)(Cl)Cl [CARBON TETRACHLORIDE]"
  DISPLAY_UNIT: "mg/dL"
  BUN: 16.2
- COMPOUND: "CCCCc1oc2ccccc2c1C(=O)c1cc(I)c(OCCN(CC)CC)c(I)c1"
  DISPLAY_UNIT: "mg/dL"
  BUN: 16.2
- COMPOUND: "CC(C)N(CCC(C(N)=O)(c1ccccc1)c1ccccn1)C(C)C (stereo unspecified) [DISOPYRAMIDE]"
  DISPLAY_UNIT: "mg/dL"
  BUN: 17.6
- COMPOUND: "CCc1oc2ccccc2c1C(=O)c1cc(Br)c(O)c(Br)c1"
  DISPLAY_UNIT: "mg/dL"
  BUN: 16.4

----------
species on record: Rattus norvegicus; assay: Open TG-GATES - Regimen: Daily Repeat; format: toxicity, organism-based, Sprague-Dawley; parameters: regimen Daily Repeat, gender Male, age 6 weeks; settings: in vivo, po, 0 mg/kg, […], tissue Blood, route gavage, dose level Control, time 28 day
# MCV values compiled below
QUANTITY_NAME: MCV (fL)

- COMPOUND: "ClC(Cl)(Cl)Cl [CARBON TETRACHLORIDE]"
  DISPLAY_UNIT: "fL"
  MEASUREMENT: 55.7
- COMPOUND: "CCC1(c2ccccc2)C(=O)NC(=O)NC1=O"
  DISPLAY_UNIT: "fL"
  MEASUREMENT: 58.2
- COMPOUND: "CCc1oc2ccccc2c1C(=O)c1cc(Br)c(O)c(Br)c1"
  DISPLAY_UNIT: "fL"
  MEASUREMENT: 55.9
- COMPOUND: "CN(C)CCC=C1c2ccccc2COc2ccccc21 [DOXEPIN]"
  DISPLAY_UNIT: "fL"
  MEASUREMENT: 57.3
- COMPOUND: "O=NN(CCCl)C(=O)NC1CCCCC1"
  DISPLAY_UNIT: "fL"
  MEASUREMENT: 57.3
- COMPOUND: "CC1=C(CC(=O)O)c2cc(F)ccc2/C1=C\\c1ccc([S+](C)[O-])cc1 (stereo unspecified)"
  DISPLAY_UNIT: "fL"
  MEASUREMENT: 57.4

----------
species: Rattus norvegicus; test: Open TG-GATES - Regimen: Single; assay type: toxicity, organism-based, Sprague-Dawley; set-up: regimen Single, gender Male, age 6 weeks; settings: in vivo, po, 0 mg/kg, 6 h, tissue Plasma, route gavage, dose level Control
# TG values compiled below
QUANTITY_NAME: TG (mg/dL)

- COMPOUND: "CCC1(c2ccccc2)C(=O)NC(=O)NC1=O"
  MEASUREMENT: 65.4
- COMPOUND: "CC1=C(CC(=O)O)c2cc(F)ccc2/C1=C\\c1ccc([S+](C)[O-])cc1 (stereo not given)"
  MEASUREMENT: 37.4
- COMPOUND: "CN(C)C(=N)N=C(N)N"
  MEASUREMENT: 27.2
- COMPOUND: "O=NN(CCCl)C(=O)NC1CCCCC1"
  MEASUREMENT: 50.6
- COMPOUND: "CC(C)N(CCC(C(N)=O)(c1ccccc1)c1ccccn1)C(C)C (stereo not given) [DISOPYRAMIDE]"
  MEASUREMENT: 91

----------
species on record: Rattus norvegicus; experiment: Open TG-GATES - Regimen: Single; type: toxicity, organism-based, Sprague-Dawley; parameters: regimen Single, gender Male, age 6 weeks; details: in vivo, po, 0 mg/kg, 9 h, tissue Blood, route gavage, dose level Control
QUANTITY_NAME: APTT (s)

- COMPOUND: "CC[C@H]1[C@@H]2C[C@H]3[C@@H]4N(C)c5ccccc5[C@]45C[C@@H]([C@@H]2[C@H]5O)N3[C@@H]1O [AJMALINE]"
  MEASUREMENT: 17.8
- COMPOUND: "CCc1oc2ccccc2c1C(=O)c1cc(Br)c(O)c(Br)c1 [BENZBROMARONE]"
  MEASUREMENT: 16.2
- COMPOUND: "ClC(Cl)(Cl)Cl [CARBON TETRACHLORIDE]"
  MEASUREMENT: 16.1
- COMPOUND: "CN(C)C(=N)N=C(N)N [METFORMIN]"
  MEASUREMENT: 16
- COMPOUND: "OCCOCCN1CCN(C(c2ccccc2)c2ccc(Cl)cc2)CC1 (stereo not given) [HYDROXYZINE]"
  MEASUREMENT: 16.5
- COMPOUND: "CC(C)N(CCC(C(N)=O)(c1ccccc1)c1ccccn1)C(C)C (stereo not given) [DISOPYRAMIDE]"
  MEASUREMENT: 22.5
- COMPOUND: "CCC1(c2ccccc2)C(=O)NC(=O)NC1=O [PHENOBARBITAL]"
  MEASUREMENT: 19
- COMPOUND: "O=NN(CCCl)C(=O)NC1CCCCC1 [LOMUSTINE]"
  MEASUREMENT: 16.9
- COMPOUND: "CC1=C(CC(=O)O)c2cc(F)ccc2/C1=C\\c1ccc([S+](C)[O-])cc1 (stereo not given)"
  MEASUREMENT: 16.6
- COMPOUND: "CN(C)CCC=C1c2ccccc2COc2ccccc21 [DOXEPIN]"
  MEASUREMENT: 17.2

Values were extracted from ChEMBL document CHEMBL3885861.
